kinase still bound, per cent of control for assorted molecules
molecular target: PRKG2 (human) (UniProt Q13237); experiment: KINOMEscan competition binding; conditions: compound 10.0 µM
Sequence (Q13237 whole entry, looked up): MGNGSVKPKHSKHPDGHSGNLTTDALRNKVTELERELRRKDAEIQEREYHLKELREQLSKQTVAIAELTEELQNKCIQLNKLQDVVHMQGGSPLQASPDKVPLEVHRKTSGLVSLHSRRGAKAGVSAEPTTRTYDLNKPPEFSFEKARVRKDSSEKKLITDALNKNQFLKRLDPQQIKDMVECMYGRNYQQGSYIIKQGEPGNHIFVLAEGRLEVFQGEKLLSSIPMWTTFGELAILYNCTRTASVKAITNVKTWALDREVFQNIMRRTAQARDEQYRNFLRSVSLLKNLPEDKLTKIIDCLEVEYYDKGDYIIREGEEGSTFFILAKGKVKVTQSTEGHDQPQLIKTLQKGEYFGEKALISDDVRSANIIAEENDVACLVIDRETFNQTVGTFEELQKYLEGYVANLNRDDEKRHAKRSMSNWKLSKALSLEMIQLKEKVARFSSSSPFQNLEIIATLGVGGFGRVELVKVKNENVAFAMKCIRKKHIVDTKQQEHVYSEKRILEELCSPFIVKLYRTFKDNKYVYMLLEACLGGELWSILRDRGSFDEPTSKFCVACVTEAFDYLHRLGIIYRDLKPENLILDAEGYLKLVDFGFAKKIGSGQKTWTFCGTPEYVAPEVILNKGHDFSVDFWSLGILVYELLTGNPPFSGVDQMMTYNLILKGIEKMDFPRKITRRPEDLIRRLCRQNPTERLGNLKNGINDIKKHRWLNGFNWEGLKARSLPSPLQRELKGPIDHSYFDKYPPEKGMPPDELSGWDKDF

structure.smiles	kinase still bound, per cent of control
C[C@@H](Oc1cc(-c2cnn(C3CCNCC3)c2)cnc1N)c1c(Cl)ccc(F)c1Cl	89%
C=CC(=O)Nc1ccc(CN(C(=O)Nc2c(Cl)c(OC)cc(OC)c2Cl)c2cc(Nc3ccc(N4CCN(C)CC4)cc3)ncn2)cc1	100%
COCC(=O)NC/C=C/c1ccc2ncnc(Nc3ccc(Oc4ccc(C)nc4)c(C)c3)c2c1	100%
CCN(CC)CCCCNc1ncc2cc(-c3cc(OC)cc(OC)c3)c(NC(=O)NC(C)(C)C)nc2n1	100%
CNC(=O)c1cc(Oc2ccc(NC(=O)Nc3ccc(Cl)c(C(F)(F)F)c3)cc2)ccn1	96%
C=CC(=O)Nc1cc(-n2c(=O)ccc3cnc4ccc(-c5cn[nH]c5)cc4c32)ccc1C	78%
Cc1n[nH]c2ccc(-c3cncc(OC[C@@H](N)Cc4c[nH]c5ccccc45)c3)cc12	5.7%
COc1ccc(N(C(=O)Oc2c(C)cccc2C)c2ccnc(Nc3ccc(N4CCN(C)CC4)cc3)n2)c(OC)c1	92%
O=C1NC(=O)/C(=C/c2ccc3nccc(-c4ccncc4)c3c2)S1	56%
COc1cc(C(=O)N2CCC(N3CCN(C)CC3)CC2)ccc1Nc1ncc2c(n1)N(C)c1ccccc1C(=O)N2C	74%

---

biological target: TLK2 (human); experiment: KINOMEscan competition binding; conditions: compound 10.0 µM
kinase still bound, per cent of control for assorted molecules
result.type: kinase still bound, per cent of control (%)

structure.smiles	measured.target	quantity.unit	observed
CNC(=O)c1ccc(Nc2cc(Nc3ccccc3S(=O)(=O)C(C)C)c3cc[nH]c3n2)nc1	TLK2 (human)	%	100
CN(C)C/C=C/C(=O)Nc1ccc(C(=O)Nc2cccc(Nc3nccc(-c4cccnc4)n3)c2)cc1	TLK2 (human)	%	100
COc1cc2ncnc(-n3nc(-c4ccccn4)nc3N)c2cc1OC	TLK2 (human)	%	40

---

kinase still bound, per cent of control for assorted compounds
target: TNK2 (human) (UniProt Q07912); test: KINOMEscan competition binding; conditions: compound 10.0 µM
Sequence (Q07912 whole entry, looked up): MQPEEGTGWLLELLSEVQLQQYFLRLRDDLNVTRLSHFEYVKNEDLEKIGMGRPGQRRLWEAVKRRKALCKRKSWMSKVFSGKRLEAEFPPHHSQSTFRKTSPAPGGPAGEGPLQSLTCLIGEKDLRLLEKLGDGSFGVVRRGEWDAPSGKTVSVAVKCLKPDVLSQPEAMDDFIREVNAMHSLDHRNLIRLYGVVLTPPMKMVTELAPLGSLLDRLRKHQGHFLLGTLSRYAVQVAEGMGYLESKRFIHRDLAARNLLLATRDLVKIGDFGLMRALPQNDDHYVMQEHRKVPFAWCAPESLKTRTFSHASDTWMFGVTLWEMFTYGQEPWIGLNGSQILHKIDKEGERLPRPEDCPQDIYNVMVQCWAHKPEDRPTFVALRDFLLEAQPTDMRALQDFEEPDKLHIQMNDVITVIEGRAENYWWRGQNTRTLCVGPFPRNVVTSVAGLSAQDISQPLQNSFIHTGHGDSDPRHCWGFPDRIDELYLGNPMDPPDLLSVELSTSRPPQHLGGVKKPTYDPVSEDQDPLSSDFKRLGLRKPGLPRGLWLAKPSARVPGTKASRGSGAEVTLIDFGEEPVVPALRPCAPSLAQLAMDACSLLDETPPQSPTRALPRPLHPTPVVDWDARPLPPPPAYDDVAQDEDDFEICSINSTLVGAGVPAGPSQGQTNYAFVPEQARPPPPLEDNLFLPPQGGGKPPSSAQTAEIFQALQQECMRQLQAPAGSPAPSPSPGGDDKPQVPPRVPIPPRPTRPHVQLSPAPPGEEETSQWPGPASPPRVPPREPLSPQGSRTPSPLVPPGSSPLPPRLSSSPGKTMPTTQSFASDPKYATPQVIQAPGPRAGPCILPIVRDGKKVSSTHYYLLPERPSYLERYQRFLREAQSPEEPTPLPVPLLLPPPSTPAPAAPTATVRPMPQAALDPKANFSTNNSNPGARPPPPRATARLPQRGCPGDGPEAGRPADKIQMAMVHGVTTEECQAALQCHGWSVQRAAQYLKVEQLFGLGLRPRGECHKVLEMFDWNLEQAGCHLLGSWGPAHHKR

structure.smiles	measured.target	kinase still bound, per cent of control [%]
CCN(CC)CCCCNc1ncc2c(n1)N(C)C(=O)N(c1c(Cl)c(OC)cc(OC)c1Cl)C2	TNK2 (human) (UniProt Q07912)	100
O=C1NC(=O)/C(=C/c2ccc3nccc(-c4ccncc4)c3c2)S1	TNK2 (human) (UniProt Q07912)	100
CNC(=O)c1cc(Oc2ccc(NC(=O)Nc3ccc(Cl)c(C(F)(F)F)c3)cc2)ccn1	TNK2 (human) (UniProt Q07912)	96
O=c1cc(N2CCOCC2)oc2c(-c3cccc4c3sc3ccccc34)cccc12	TNK2 (human) (UniProt Q07912)	97
COCC(=O)NC/C=C/c1ccc2ncnc(Nc3ccc(Oc4ccc(C)nc4)c(C)c3)c2c1	TNK2 (human) (UniProt Q07912)	78
COc1cc2ncn(-c3cc(OCc4ccccc4C(F)(F)F)c(C(N)=O)s3)c2cc1OC	TNK2 (human) (UniProt Q07912)	54
C=CC(=O)Nc1ccc(CN(C(=O)Nc2c(Cl)c(OC)cc(OC)c2Cl)c2cc(Nc3ccc(N4CCN(C)CC4)cc3)ncn2)cc1	TNK2 (human) (UniProt Q07912)	1.7
CCN(CC)CCCCNc1ncc2cc(-c3cc(OC)cc(OC)c3)c(NC(=O)NC(C)(C)C)nc2n1	TNK2 (human) (UniProt Q07912)	100
N#CCNC(=O)c1ccc(-c2ccnc(Nc3ccc(N4CCOCC4)cc3)n2)cc1	TNK2 (human) (UniProt Q07912)	93
CS(=O)(=O)N1CCN(Cc2cc3nc(-c4cccc5[nH]ncc45)nc(N4CCOCC4)c3s2)CC1	TNK2 (human) (UniProt Q07912)	100
COc1cc(N2CCN(C)CC2)ccc1Nc1ncc2c(n1)N(C)c1ccccc1C(=O)N2C	TNK2 (human) (UniProt Q07912)	3.2
